Tested on: MS2 coat protein
Experiment Notes: apparent KD of MS2 coat protein; designed switch direction (-1 OFF switch, 1 ON switch): 1; higher = weaker reporter binding
Particulars: input ligand: microRNA oligo, concentration not stated
Metric: apparent KD of MS2 coat protein

[[record]]
polymer_sequence = "AUAACACUGGCAGGAUAUGGGAAAGGAAGUGUACCAGAAGGGCCAGAACGGCGAUGGACAUGAGGAUCACCCAUGUCUUAGCCU [PowerStrip SSNG 1.4] (Eterna round: R96, puzzle: Same State NG 1)"
subject_of_test = "MS2 coat protein"
metric = "apparent KD of MS2 coat protein"
data_value = "11.4 nM"


Provide reported apparent KD of MS2 coat protein for each item, in the same order as listed.
1. GGUAGGUUACUACCAAACAUGAGGAUCACCCAUGUUGAUGGGAAGGAUAUGGUACCUUUUAGGUACCAGAAGGUCUAAUCGAUC [NGss mod of JL's mod of Fisker 4] (Eterna round: R96, puzzle: Same State NG 3)
2. GUAGCAUACCGAGGAUAUUCAUUACAUGAGGAUCACCCAUGUUUUAUAGGUCGAUUACGACCUUGGGAGAAGGCGGAAUGCUAC [Xeonanis - 20 Mod30] (Eterna round: R96, puzzle: Same State NG 2)
3. CCGCUCCGUGGAGGAUAUGGGCCUGCCCGGGAUACCGAGCCUAACACAUGAGGAUCACCCAUGUCCCAGAAGGCCGCUGGAGCC [Inusaron] (Eterna round: R96, puzzle: Same State NG 2)

// result
["115 nM", "9.36 nM", "52.8 nM"]

----------
Test system: MS2 coat protein
Experiment Notes: apparent KD of MS2 coat protein; higher = weaker reporter binding
Particulars: Eterna round: R107; input ligand: arginine 13.2 mM
Would you please tag the item 1 when its apparent KD of MS2 coat protein is 70 nM or above, and -1 when it is below?

[[record]]
polymer_sequence = "AAUAAUAACAUGGGUGAAGUCGUACCAUAACGAGGACCGGUACGGCCGCCACUCGAACAUGAGGAUCACCCAUGUAGGUACGACA [M'-T'-T-MS2-T'' - Design 9]"
qualitative_label = -1

[[record]]
polymer_sequence = "UACCGGUGACUCGAUACCAGUCCUCUAAAAUACAUGAGGAUCACCCAUGUAACCUUCCCAGACCCUUGGCAGCGACACAUGGAUA [theeternabot_sameState_MS2_Theo_B_49]"
qualitative_label = 1

[[record]]
polymer_sequence = "AAACAUGAGGAUCACCCAUGUCCUCGUGAUCGAGGACCGGUACGGCCGCCACUCGGUCCUCGCGAGGUGGAGUCAAAGACUCCAA [Omei Trp A SS A v7]"
qualitative_label = 1


Now for a further sequence.
// query hey, is apparent KD of MS2 coat protein for this one >= 70 nM? UCGGCAGUGAACGAUACCAGCGUCACGUGGCCGGUGGUCACAUGAGGAUCACCCAUGUAACGCCCUUGGCAGCGUGCGCGUACCG [Zaancebi]
// result -1

----------
Test system: K4 kissing-loop RNA reporter;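 further: bound reporter read as fluorescence of individual clusters on recovered sequencing chips by microscopy, with normalized cluster intensities fitted with a binding model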
Experiment Notes: apparent KD of K4 kissing-loop reporter; higher = weaker reporter binding
Particulars: Eterna round: R107; input ligand: FMN 200 uM
Metric: apparent KD of K4 kissing-loop reporter (nM)
Answers are plain numbers, in nM.

Before answering, review these 5 worked examples.
[[record]]
polymer_sequence = "AAUAUAGUGAUGUUAUAUAAGAAGGAGUUACGAGGACCGGUACGGCCGCCACUCGAAACGAGUGAGGGCUUGGGAGAUUGGGCCC [SSTryptA.I]"
metric = "apparent KD of K4 kissing-loop reporter"
data_value = 404

[[record]]
polymer_sequence = "UGUGUACCGGGAAGGAGCGUGAAUGAGAAUGGAUAUAGUGAUGUUAUAUAUACGAACGAAUCGCAGGUAGGUCGCCCGGAUCCCU [SSArgB.Y]"
metric = "apparent KD of K4 kissing-loop reporter"
data_value = 418

[[record]]
polymer_sequence = "AUUAAGAUAUGAGUGAUGUUUAUGUCCGAAGGAGCGUGCGAAAGUACAGGUAGGUCGCGGAUGUGAGUGAUGUUUAUGUAAGCGU [KL-XArg-A15 #analogue]"
metric = "apparent KD of K4 kissing-loop reporter"
data_value = 109

[[record]]
polymer_sequence = "GCAGGACGAGGAGGAGGAUGAAUUACUGAAGGAGCGCAUAUUUUUGCAGGUAGGUCGCGGUAAACAAGUAUAGUGAUGUUAUAUC [SSArgA.N]"
metric = "apparent KD of K4 kissing-loop reporter"
data_value = 445

[[record]]
polymer_sequence = "UUGAUAUGAUAGUAUCCUGUUUGAUAAAGGCAGGAUAUCGAAAAUUCGAGAAGGGCCAUUAUAUGCAGUGAUGUUGCAAAUAAGU [Exclusion FMN A Gf 24]"
metric = "apparent KD of K4 kissing-loop reporter"
data_value = 76.8


Now for the sequence whose apparent KD of K4 kissing-loop reporter we want.
sequence GGCAGUGAUGUUGCCUAAGCAACGCAUGCGGAGGAUAUUCGUUCGGGAAGAAGGCCGCAGCGUUCUCUCGCGAGUGAUGUUCGCA [Same State FMN A GF 22] , apparent KD of K4 kissing-loop reporter observed: 158
